system: Streptococcus oralis; test: Quantitative bacterial aggregation by absorbance at 610 nm, S. oralis; assay type: cell-based; settings: 9 minutes; 1.5% arginine, 0.94% lysine, 0.35% ZnCl2, 1.2% Zn-Lys, 1.33% Zn-Arg; 0.9% NaCl
PROPERTY: OD610

Example cases with answers are listed next.
{"MOLECULE": "N=C(N)NCCC[C@H](N)C(=O)O", "OD610": 0.473}
{"MOLECULE": "Cl.Cl.NCCCCC(N)C(=O)[O-].NCCCCC(N)C(=O)[O-].O.O.[Zn+2] (stereo not shown) [ZLC, zinc-lysine-chloride complex]", "OD610": 0.551}
{"MOLECULE": "NCCCC[C@H](N)C(=O)O", "OD610": 0.547}

Please look at the following molecule next.
The molecule listed as [Cl-].[Cl-].[Zn+2] [ZnCl2, zinc chloride] has a reported OD610 of 0.584

---

test system: A. viscous bacteria; test: Quantitative bacterial aggregation by absorbance at 610 nm, A. viscous; format: cell-based; conditions: 14 minutes; 1.5% arginine, 0.94% lysine, 0.35% ZnCl2, 1.2% Zn-Lysine, 1.33% Zn-Arg
For each of the compounds below, state its OD610.
Numbers only.

{"COMPOUND": "NCCCC[C@H](N)C(=O)O", "NUMERIC_VALUE": 0.413}
{"COMPOUND": "Cl.Cl.NCCCCC(N)C(=O)[O-].NCCCCC(N)C(=O)[O-].O.O.[Zn+2] (stereo not shown) [ZLC, zinc-lysine-chloride complex]", "NUMERIC_VALUE": 0.554}
{"COMPOUND": "N=C(N)NCCC[C@H](N)C(=O)O", "NUMERIC_VALUE": 0.432}

// next item, OD610 requested
Documented OD610 of [Cl-].[Cl-].[Zn+2] [ZnCl2, zinc chloride] : 0.315

---

test system: A. viscous bacteria; experiment: Quantitative bacterial aggregation by absorbance at 610 nm, A. viscous; assay type: cell-based; conditions: 46 minutes; 1.5% arginine, 0.94% lysine, 0.35% ZnCl2, 1.2% Zn-Lysine, 1.33% Zn-Arg
What OD610 was measured for each of the following?
One number for each entry.

Look over these answered cases.
{"COMPOUND": "Cl.Cl.NCCCCC(N)C(=O)[O-].NCCCCC(N)C(=O)[O-].O.O.[Zn+2] (stereo not shown) [ZLC, zinc-lysine-chloride complex]", "OD610": 0.032}
{"COMPOUND": "NCCCC[C@H](N)C(=O)O", "OD610": 0.410}
{"COMPOUND": "[Cl-].[Cl-].[Zn+2] [ZnCl2, zinc chloride]", "OD610": 0.391}

Field: next compound
// OD610 lookup, compound = `N=C(N)NCCC[C@H](N)C(=O)O` , result: 0.418

---

Please go through the items and note down their OD610.
system: Streptococcus oralis; test: Quantitative bacterial aggregation by absorbance at 610 nm, S. oralis; assay type: cell-based; settings: 55 minutes; 1.5% arginine, 0.94% lysine, 0.35% ZnCl2, 1.2% Zn-Lys, 1.33% Zn-Arg; 0.9% NaCl
Answers are plain numbers.

Answered cases to consult:
{"COMPOUND": "[Cl-].[Cl-].[Zn+2] [ZnCl2, zinc chloride]", "OD610": 0.397}
{"COMPOUND": "Cl.Cl.NCCCCC(N)C(=O)[O-].NCCCCC(N)C(=O)[O-].O.O.[Zn+2] (stereo not shown) [ZLC, zinc-lysine-chloride complex]", "OD610": 0.182}
{"COMPOUND": "N=C(N)NCCC[C@H](N)C(=O)O", "OD610": 0.428}

Here is the next item to consider.
Value of OD610 reported for the compound `NCCCC[C@H](N)C(=O)O` is 0.555

Origin of values: patent US20170157013A1
